# Test system: 994946-033-R-J1-PDC complex spheroid viability
# ASSAY NOTES: Anticancer human tumor 994946-033-R-J1-PDC patient-derived melanoma cell line growth inhibition [POLQ]; active = viability on the fitted dose curve at most 10% of control; inactive = the rest
# CONDITION DETAILS: second compound 10 µM; first compound 0.0316 µM
Use one of these outcomes when replying: active, inactive

>>> discrete_label("O=C(Nc1ccc(O)c(NS(=O)(=O)c2ccc(F)cc2)c1)c1ccc(-c2ccccc2)cc1 + COC1C(OC(N)=O)C(O)C(Oc2ccc3c(O)c(NC(=O)c4ccc(O)c(CC=C(C)C)c4)c(=O)oc3c2C)OC1(C)C")
"inactive"
>>> discrete_label("CCCS(=O)(=O)Nc1ccc(F)c(C(=O)c2c[nH]c3ncc(-c4ccc(Cl)cc4)cc23)c1F + Cc1cccc(N(C)C(=O)C2C(O)CCN2c2nc(C)cc(C(F)(F)F)c2C#N)c1")
"inactive"

// next entry
Call for entry CCc1c2c(nc3ccc(O)cc13)-c1cc3c(c(=O)n1C2)COC(=O)[C@]3(O)CC + Cc1cccc(N(C)C(=O)C2C(O)CCN2c2nc(C)cc(C(F)(F)F)c2C#N)c1 : active

---

# System: 994946-033-R-J1-PDC complex spheroid viability
# ASSAY NOTES: Anticancer human tumor 994946-033-R-J1-PDC cell line growth inhibition [POLQ];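 note: spheroids exposed to drugs for 7 days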;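 for viability, T/C: 100% = DMSO vehicle treated spheroids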
# CONDITION DETAILS: second compound 0.1 µM; first compound 0.0316 µM; stronger effect = lower value
OUTCOME MEASURE: viability, T/C (%)
Provide only the numeric value, understood in %.

>>> value("CC(C)n1c(=O)n(C)c2cnc3cc(F)c(-c4ccc(OCCCN5CCCCC5)nc4)cc3c21 + Nc1ccc(C#CCN(C(=O)Cc2ncc(C(F)(F)F)cc2C(F)(F)F)c2ccc(F)cc2)nn1")
113
>>> value("COc1ccc([C@@H](O)c2cc(-c3ncnc4cc(N5CCOCC5)ccc34)c(F)cc2Cl)nn1 + Nc1ccc(C#CCN(C(=O)Cc2ncc(C(F)(F)F)cc2C(F)(F)F)c2ccc(F)cc2)nn1")
91.6

# value lookup — system 994946-033-R-J1-PDC complex spheroid viability, readout viability, T/C, item CNCc1ccc(-c2[nH]c3cc(F)cc4c3c2CCNC4=O)cc1 + Cc1cccc(N(C)C(=O)C2C(O)CCN2c2nc(C)cc(C(F)(F)F)c2C#N)c1 85.5

---

# Test system: 994946-033-R-J1-PDC complex spheroid viability
# ASSAY NOTES: Anticancer human tumor 994946-033-R-J1-PDC cell line growth inhibition [POLQ];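 note: spheroids exposed to drugs for 7 days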
# CONDITION DETAILS: curve of first compound; second compound 0.1 µM
# pIC50 per entry
pIC50 here: minus log base 10 of the concentration, concentration in moles per litre.

Consider the following illustrative entries.
>>> value("COc1cccc(OCCCN)c1-c1cc(Nc2cnc(C#N)cn2)n[nH]1 + Nc1ccc(C#CCN(C(=O)Cc2ncc(C(F)(F)F)cc2C(F)(F)F)c2ccc(F)cc2)nn1")
7.63
>>> value("COc1ccc([C@@H](O)c2cc(-c3ncnc4cc(N5CCOCC5)ccc34)c(F)cc2Cl)nn1 + COC1C(OC(N)=O)C(O)C(Oc2ccc3c(O)c(NC(=O)c4ccc(O)c(CC=C(C)C)c4)c(=O)oc3c2C)OC1(C)C")
5.66

Kindly consider the entry below.
What value of measured pIC50 is listed for O=C(c1cc(Cc2n[nH]c(=O)c3ccccc23)ccc1F)N1CCN(C(=O)C2CC2)CC1 + COC1C(OC(N)=O)C(O)C(Oc2ccc3c(O)c(NC(=O)c4ccc(O)c(CC=C(C)C)c4)c(=O)oc3c2C)OC1(C)C ? 5.34
